This listing pairs binders with measured glycan array binding signal (z-score).
# MEASURED ON: Neu5Ac(a2-3)Gal(b1-4)GlcNAc(b1-3)Gal(b1-4)GlcNAc(b1-2)Man(a1-3)[Neu5Ac(a2-3)Gal(b1-4)GlcNAc(b1-3)Gal(b1-4)GlcNAc(b1-2)Man(a1-6)]Man(b1-4)GlcNAc(b1-4)GlcNAc
# TEST PROTOCOL: glycan array binding signal (z-score within array); higher = stronger binding
# MEASUREMENT CONDITIONS: glycan notation: IUPAC condensed, linker removed
Only a selection was taken, and the strongest signals are over-represented in it overall.
When you answer, write just the number.

BINDER	READOUT VALUE
TAL6-4LysM (Trichoderma atroviride) (protein) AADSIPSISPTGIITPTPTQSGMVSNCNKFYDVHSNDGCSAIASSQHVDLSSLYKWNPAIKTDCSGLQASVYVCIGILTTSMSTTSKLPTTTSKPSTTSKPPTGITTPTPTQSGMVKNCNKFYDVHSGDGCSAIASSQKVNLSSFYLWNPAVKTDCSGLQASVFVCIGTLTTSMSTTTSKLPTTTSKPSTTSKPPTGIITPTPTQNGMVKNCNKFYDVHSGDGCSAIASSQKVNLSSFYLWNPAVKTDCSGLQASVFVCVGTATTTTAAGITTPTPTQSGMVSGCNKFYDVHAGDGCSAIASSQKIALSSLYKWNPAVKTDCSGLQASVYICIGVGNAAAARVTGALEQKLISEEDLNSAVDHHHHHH	2.52

Could you now consider this next binder?
Ask: Entry under review: DC-Sign-R (Homo sapiens), Q9H2X3 (protein) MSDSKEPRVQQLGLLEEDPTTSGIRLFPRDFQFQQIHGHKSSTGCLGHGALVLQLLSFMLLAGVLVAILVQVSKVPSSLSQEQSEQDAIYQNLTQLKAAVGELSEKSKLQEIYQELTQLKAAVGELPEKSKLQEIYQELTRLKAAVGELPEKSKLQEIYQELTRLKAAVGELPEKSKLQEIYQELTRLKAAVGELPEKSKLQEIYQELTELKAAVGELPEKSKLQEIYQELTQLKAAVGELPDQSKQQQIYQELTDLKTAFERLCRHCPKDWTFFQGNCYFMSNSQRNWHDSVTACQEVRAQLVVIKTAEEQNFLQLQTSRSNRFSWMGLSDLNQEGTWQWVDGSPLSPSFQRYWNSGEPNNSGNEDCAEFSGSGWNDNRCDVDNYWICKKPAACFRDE . Reported glycan array binding signal (z-score)?
Result: 1.11
